- Tested on: P. falciparum stage V gametocytes
- Design: BacTiter-Glo ATP luminescence viability of purified stage V gametocytes in 384-well plates, per cent inhibition versus DMSO
- cond: 48 h, 5 µM; inhibitor
About 3,200 (25%) of roughly 13,000 compounds showed an effect of 50% or more. This is one part of the list.
true (1) means recorded % Inhibition is 50% or above; false (0) means it is below 50%.

| compound | subject of test | qualitative label |
| --- | --- | --- |
| O=C(Nc1cccc(-c2cccc(-c3nc4ccc(C(F)(F)F)cc4[nH]3)c2)c1)Nc1ccc(F)c(F)c1F | P. falciparum stage V gametocytes | true (1) |
| O=C(Nc1ccc(Cl)cc1)c1cc(Cl)ccc1NC(=O)C1CCc2ccccc2O1 (stereo not shown) | P. falciparum stage V gametocytes | false (0) |
| O=C(Nc1ccc(-c2cccc(-c3nc4ccc(C(F)(F)F)cc4[nH]3)c2)cc1)Nc1ccc(F)c(F)c1F | P. falciparum stage V gametocytes | false (0) |
| CC(=O)Nc1ccc(C(=O)Nc2cccc(-c3cccc(-c4nc5ccc(F)cc5[nH]4)c3)c2)cn1 | P. falciparum stage V gametocytes | false (0) |
| CC(=O)Nc1ccc(C(=O)Nc2cccc(-c3cccc(-c4nc5ccc(C(F)(F)F)cc5[nH]4)c3)c2)cn1 | P. falciparum stage V gametocytes | true (1) |
| NC(=O)c1ccc(C(=O)Nc2cccc(-c3cccc(-c4nc5ccc(C(F)(F)F)cc5[nH]4)c3)c2)cc1 | P. falciparum stage V gametocytes | false (0) |

----------
Listed compounds paired with reported % Inhibition
- System: P. falciparum stage V gametocytes
- Set-up: BacTiter-Glo ATP luminescence viability of purified stage V gametocytes in 384-well plates, per cent inhibition versus DMSO
- cond: 48 h, 5 µM; inhibitor
The whole screen tested about 13,000 compounds, of which about 3,200 (25%) showed an effect of 50% or more. The list shows a part of the results.
assay metric: % Inhibition (%)

| compound | assay metric | numeric value |
| --- | --- | --- |
| COc1cc(CC(C)NCC(O)c2cccc(C(F)(F)F)c2)ccc1OCc1ccccc1 (centres unmarked) | % Inhibition | 14.56 |
| CC(=O)Nc1nc(C(=O)Nc2ccc(-c3ccc(-c4nc5ccc(F)cc5[nH]4)cc3)cc2)cs1 | % Inhibition | 1.328 |
| COc1ccc(-c2nc(-c3ccc([N+](=O)[O-])cc3)no2)cc1OC | % Inhibition | 16.37 |
| O=[N+]([O-])c1cccc(S(=O)(=O)N2CCN(CC(O)COc3ccc(-c4ccccc4)cc3)CC2)c1 (centres unmarked) | % Inhibition | -58.05 |
| NC(N)=Nc1cccc(NC(=O)Nc2cccc(N=C(N)N)c2)c1 | % Inhibition | -4.06 |
| O=C(Nc1ccc(C(=O)OCC2CCCN3CCCCC23)cc1)c1ccc([N+](=O)[O-])cc1 (centres unmarked) | % Inhibition | -7.885 |
| C=CC[C@@H](C(=O)OCC)[C@@H]1[C@@H](N(CC=C)C(=O)OC(C)(C)C)CCN1C(=O)OCc1ccccc1 | % Inhibition | 7.25 |
| CCn1cc(-c2nc(-c3cc(OC)cc(OC)c3)no2)c(=O)c2ccccc21 | % Inhibition | 51.09 |

----------
- System: P. falciparum stage V gametocytes
- Set-up: BacTiter-Glo ATP luminescence viability of purified stage V gametocytes in 384-well plates, per cent inhibition versus DMSO
- cond: 48 h, 5 µM; inhibitor
Hit rate of the full screen: of about 13,000 compounds, about 3,200 (25%) showed an effect of 50% or more. Some of the results follow.
assay metric: % Inhibition (%)

| compound | assay metric | numeric value |
| --- | --- | --- |
| CS(=O)(=O)Nc1cccc(-c2cnc3[nH]cc(-c4cc(N)cc(C(=O)O)c4)c3c2)c1 | % Inhibition | 11.92 |
| O=S(=O)(c1c(Cl)cc(Cl)cc1Cl)N1CCCCC(c2ccc(Cl)cc2)=N1 | % Inhibition | -3.325 |
| Oc1cccc(Nc2nc(NCc3ccco3)c3ccccc3n2)c1 | % Inhibition | 8.731 |
| CC(=O)Nc1ccc(S(=O)(=O)Nc2ccc(Nc3nc(C)cc(N4CCCCC4)n3)cc2)cc1 | % Inhibition | -6.943 |
| COc1cc(Cc2cnc(N)nc2N)cc(OCCn2ccccc2=O)c1OC | % Inhibition | -6.593 |
| O=S(=O)(c1ccc(Cl)cc1Cl)N1CCCCC(c2ccc(C(F)(F)F)cc2)=N1 | % Inhibition | 0.9055 |
| COc1ccc2nccc([C@@H](O)CN3CCC(NCc4cc5ccccc5s4)CC3)c2c1 | % Inhibition | 1.924 |
| c1ccc2c(C3CCN(CCCCOc4ccc5c(c4)CCN(CC4CC4)CC5)CC3)c[nH]c2c1 | % Inhibition | 103.6 |
| COc1ccc(C(C(=O)NC2CCN(C[C@H](O)c3ccnc4ccc(OC)cc34)CC2)N2CCN(c3ccc([N+](=O)[O-])cc3)CC2)cc1 (stereo partly shown) | % Inhibition | -4.461 |
| Cc1cccc(Cl)c1S(=O)(=O)N1CCCCC(c2ccc(C(F)(F)F)cc2)=N1 | % Inhibition | 25.02 |
| O=C(NCCCCCN1CCC(c2c[nH]c3ccccc23)CC1)c1ccc(Cl)c(Cl)c1 | % Inhibition | -15.31 |
| CN(C)CCc1c[nH]c2ccc(C(=O)Nc3ccc(-c4ccncc4)cc3)cc12 | % Inhibition | 19.3 |
| O=C(Nc1ccc(F)cc1)NC1CCN(c2ccnc3ccccc23)C1 (stereo not shown) | % Inhibition | 52.59 |
| O=S(=O)(c1c(Cl)cc(Cl)cc1Cl)N1CCCCC(c2ccc(C(F)(F)F)cc2)=N1 | % Inhibition | 71.02 |
| Cc1ccc(NC(=O)Nc2ccccc2)cc1-c1ccc(C(=O)Nc2ccncc2)cc1 | % Inhibition | -4.063 |
| CN(C(=O)c1snnc1-c1ccccc1)C1CCN(CCCCCNC(=O)/C=C/c2ccc(Cl)c(Cl)c2)CC1 | % Inhibition | -14.58 |

----------
- Test system: P. falciparum stage V gametocytes
- Set-up: BacTiter-Glo ATP luminescence viability of purified stage V gametocytes in 384-well plates, per cent inhibition versus DMSO
- cond: 48 h, 5 µM; inhibitor
About 3,200 (25%) of roughly 13,000 compounds showed an effect of 50% or more. Some of the results follow.
Condition met means recorded % Inhibition is 20% or above; Condition not met means it is below 20%.

| molecule | qualitative label |
| --- | --- |
| O=C(Nc1cccc(-c2cccc(-c3nc4ccccc4[nH]3)c2)c1)Nc1ccc2c(c1)OCO2 [TCMDC-133167] | Condition not met |
| CC(CCc1ccccc1)NCC(O)c1ccc2c3c(cccc13)C(=O)N2C (centres unmarked) [TCMDC-131252] | Condition not met |
| CN1CCC(NCc2ccc(-c3ccc(S(=O)(=O)NCc4ccccc4)c(F)c3)cc2)CC1 [TCMDC-132235] | Condition met |
| COc1ccc(-n2nc(C(=O)NCc3ccccc3OC)c3ccccc3c2=O)cc1 [TCMDC-125443] | Condition not met |
| CC(C)(C)NCc1cc(Nc2ccnc3cc(Cl)ccc23)ccc1F [TCMDC-135909] | Condition not met |
| CC1CN(Cc2ccc(C#N)cc2)CCN1c1ccc(NC(=O)c2cccs2)cc1 (centres unmarked) [TCMDC-134949] | Condition not met |
| Cc1cc(-c2ccc(CNC3CCN(C)CC3)cc2)ccc1S(=O)(=O)NCc1ccccc1 [TCMDC-132474] | Condition met |
| CCc1ccc(CN2CCC(CN(C(=O)c3ccccc3)c3ccc(Cl)cc3)CC2)cc1 [TCMDC-135382] | Condition met |
| Cc1nc2ccc(NC(=O)Nc3ccnc4ccc(C(F)(F)F)cc34)cc2o1 [TCMDC-139534] | Condition not met |
| Cn1cnc(CCNC(=O)c2ccc(-c3cccc(-c4nc5cc(F)ccc5[nH]4)c3)cc2)c1 [TCMDC-132497] | Condition not met |
| Cn1c(N)c(N=O)c(=O)[nH]c1=O [TCMDC-123469] | Condition not met |
| CN1CCN(c2ccnc3cc4c(cc23)N(Cc2ccccc2)CC4)CC1 [TCMDC-139341] | Condition not met |
| OC(c1ccccc1)C1CN(Cc2ccccc2)CCC1(O)c1ccccc1 (centres unmarked) [TCMDC-125518] | Condition not met |
| O=C(OCC1CCN(Cc2ccccc2)C1)c1ccc(Cl)cc1 (centres unmarked) [TCMDC-138995] | Condition not met |
| COc1ccc2nccc([C@@H](O)CN3CCC(NCCOc4c(C)cccc4F)CC3)c2c1 [TCMDC-140657] | Condition met |
| CC(C)NCc1ccc(-c2ccc(CN3CCCC(c4ccccc4)C3)cc2)c(C(=O)NCC2CCCCC2)c1 (centres unmarked) [TCMDC-134699] | Condition met |
| CNC(=O)/C=C/c1cc(NC(=O)Nc2ccnc3c(Br)cccc23)ccc1OC [TCMDC-140331] | Condition not met |
